Data provenance: patent US8324245B2

experimentalTarget: met (HGF receptor) in human gastric cancer cells MKN45 (Homo sapiens, UniProt P08581)
Construct: endogenous in cells
Sequence (P08581 25-1390): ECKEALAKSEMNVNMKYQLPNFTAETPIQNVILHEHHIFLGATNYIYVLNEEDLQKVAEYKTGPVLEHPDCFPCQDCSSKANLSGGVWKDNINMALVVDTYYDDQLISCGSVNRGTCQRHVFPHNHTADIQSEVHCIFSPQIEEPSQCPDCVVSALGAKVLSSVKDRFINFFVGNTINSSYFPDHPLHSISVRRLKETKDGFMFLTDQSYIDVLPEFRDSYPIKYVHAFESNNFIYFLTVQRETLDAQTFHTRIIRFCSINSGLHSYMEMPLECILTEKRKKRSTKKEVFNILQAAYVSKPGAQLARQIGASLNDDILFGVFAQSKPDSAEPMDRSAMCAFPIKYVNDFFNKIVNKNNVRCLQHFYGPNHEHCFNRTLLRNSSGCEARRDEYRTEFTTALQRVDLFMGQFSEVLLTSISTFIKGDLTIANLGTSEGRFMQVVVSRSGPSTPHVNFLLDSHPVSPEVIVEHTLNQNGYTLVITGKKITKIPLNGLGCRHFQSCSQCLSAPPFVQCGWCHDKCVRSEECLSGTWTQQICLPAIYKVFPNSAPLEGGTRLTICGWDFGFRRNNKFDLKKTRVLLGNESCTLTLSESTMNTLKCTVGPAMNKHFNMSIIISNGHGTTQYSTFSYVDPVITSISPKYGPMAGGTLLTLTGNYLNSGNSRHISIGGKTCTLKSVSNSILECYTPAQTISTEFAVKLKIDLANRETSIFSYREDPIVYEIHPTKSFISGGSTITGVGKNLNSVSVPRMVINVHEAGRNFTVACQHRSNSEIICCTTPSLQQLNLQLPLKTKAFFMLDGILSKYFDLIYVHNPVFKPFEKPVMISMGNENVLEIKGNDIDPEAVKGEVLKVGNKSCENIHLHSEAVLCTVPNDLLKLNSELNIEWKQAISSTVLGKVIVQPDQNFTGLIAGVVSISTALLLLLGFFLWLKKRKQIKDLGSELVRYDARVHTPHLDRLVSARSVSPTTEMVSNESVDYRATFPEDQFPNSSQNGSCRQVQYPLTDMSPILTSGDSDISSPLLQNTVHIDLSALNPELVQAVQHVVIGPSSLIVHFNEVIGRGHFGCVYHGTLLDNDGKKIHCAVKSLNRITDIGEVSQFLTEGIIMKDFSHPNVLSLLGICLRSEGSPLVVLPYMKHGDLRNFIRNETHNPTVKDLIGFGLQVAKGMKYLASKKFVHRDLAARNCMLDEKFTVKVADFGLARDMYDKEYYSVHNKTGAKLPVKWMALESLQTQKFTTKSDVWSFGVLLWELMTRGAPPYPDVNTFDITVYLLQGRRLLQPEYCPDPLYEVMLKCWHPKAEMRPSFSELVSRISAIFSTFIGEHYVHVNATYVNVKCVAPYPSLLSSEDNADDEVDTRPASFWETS
runDescription: Inhibitory activity against met-autophosphorylation using ELISA method (2), MKN45 cells, HGF-independent
experimentalEndpoint: IC50 (nM)

Below are worked cases with known answers.
{"compound": "COc1cc2c(Oc3ccc(NC(=S)NC(=O)Cc4ccccc4Cl)cc3F)ccnc2cc1OCC(O)CN1CCOCC1 (stereo not shown)", "experimentalEndpoint": "IC50", "reportedMeasurement": 23.2}
{"compound": "COc1cc2c(Oc3ccc(NC(=O)NC(=O)Cc4ccc(F)cc4)cc3F)ccnc2cc1OCCCCN1CCOCC1", "experimentalEndpoint": "IC50", "reportedMeasurement": 281}
{"compound": "COc1cc2nccc(Oc3ccc(NC(=O)C(OC)C(=O)Nc4ccc(F)cc4F)cc3)c2cc1OC (stereo not shown)", "experimentalEndpoint": "IC50", "reportedMeasurement": 2770}
{"compound": "COc1cc2nccc(Oc3ccc(NC(=O)CC(=O)Nc4ccc(F)cc4F)cc3)c2cc1OC", "experimentalEndpoint": "IC50", "reportedMeasurement": 91.8}
{"compound": "COc1cc(Oc2ccnc3cc(OC)c(OC)cc23)ccc1NC(=S)NC(=O)Cc1ccsc1", "experimentalEndpoint": "IC50", "reportedMeasurement": 23.5}
{"compound": "COc1cc2c(Oc3ccc(NC(=O)NC(=O)Cc4ccccc4)c(F)c3)ccnc2cc1OCCCN1CCC(CO)CC1", "experimentalEndpoint": "IC50", "reportedMeasurement": 18.5}
{"compound": "COc1cc2c(Oc3ccc(NC(=S)NC(=O)Cc4ccccc4)cc3F)ccnc2cc1OCCN1CCC(CO)CC1", "experimentalEndpoint": "IC50", "reportedMeasurement": 15}
{"compound": "COc1cc2nccc(Oc3ccc(NC(=O)NC(=O)CC4C5CCC4CC5)cc3Cl)c2cc1OC (stereo not shown)", "experimentalEndpoint": "IC50", "reportedMeasurement": 285}

a = COc1cc2nccc(Oc3ccc(NC(=O)CC(=O)NCc4ccccc4)cc3)c2cc1OC
b = COc1cc2nccc(Oc3ccc(NC(=O)NC(=O)Cc4c(F)cccc4F)cc3F)c2cc1OC
c = COc1cc2nccc(Oc3ccc(NC(=O)NC(=O)Nc4cccc(C(C)=O)c4)cc3)c2cc1OC
Order the entries by their reported IC50, beginning at the minimum. Order the labels as requested and give them as your answer.
b, c, a
(b: 226 nM, c: 343 nM, a: 1980 nM)

a = COc1cc2nccc(Oc3ccc(NC(=S)NC(=O)Cc4cc(F)ccc4F)cc3F)c2cc1OC
b = COc1cc2nccc(Oc3ccc(NC(=S)NC(=O)C4CCCC4)c(F)c3)c2cc1OC
Could you check which of a and b has a smaller value for IC50? Identify your pick by its label.
a
(a: 291 nM, b: 3590 nM)
